test system: CCRIS mutagenicity, Ames/micronucleus/aberration tests; assay: CCRIS mutagenicity studies; conditions: Test System: AMES SALMONELLA TYPHIMURIUM; Strain/Indicator: TA98; Metabolic Activation: RAT, LIVER, S-9, AROCLOR 1254; Method: STANDARD PLATE
Active and inactive are the calls of the source. No rule for the calls is given here.
readout label: mutagenic call

Below: 6 compounds and their reported mutagenic call.
compound: COc1cc(O)c2c(=O)oc3cc(O)cc(C)c3c2c1
readout label: mutagenic call
test result: inactive; negative
//
compound: O=C(/C=C/c1ccccc1)c1ccc(-c2ccccc2)cc1
readout label: mutagenic call
test result: inactive; negative
//
compound: O=C(O)CCCC[C@@H]1SC[C@@H]2NC(=O)N[C@@H]21
readout label: mutagenic call
test result: inactive; negative
//
compound: CCc1ccco1
readout label: mutagenic call
test result: inactive; negative
//
compound: Cc1c(N(C)C)c(=O)n(-c2ccccc2)n1C
readout label: mutagenic call
test result: inactive; negative
//
compound: O=C(O)COc1ccc(Cl)cc1
readout label: mutagenic call
test result: inactive; negative

Query: Name the recorded mutagenic call of c1ccc2cnncc2c1 , assay system CCRIS mutagenicity, Ames/micronucleus/aberration tests.
Response: inactive; negative

Query: Name the recorded mutagenic call of Cc1cccc2cc3ccccc3cc12 , assay system CCRIS mutagenicity, Ames/micronucleus/aberration tests.
Response: inactive; negative

Query: Name the recorded mutagenic call of NCCCC[C@H](N[C@@H](CCc1ccccc1)C(=O)O)C(=O)N1CCC[C@H]1C(=O)O , assay system CCRIS mutagenicity, Ames/micronucleus/aberration tests.
Response: inactive; negative

Query: Name the recorded mutagenic call of c1ccc(C2CO2)cc1 (stereo unspecified) , assay system CCRIS mutagenicity, Ames/micronucleus/aberration tests.
Response: inactive; negative

====

test system: CCRIS mutagenicity, Ames/micronucleus/aberration tests; assay: CCRIS mutagenicity studies; conditions: Test System: AMES SALMONELLA TYPHIMURIUM; Strain/Indicator: TA98; Metabolic Activation: RAT, LIVER, S-9, SODIUM PHENOBARBITAL; Method: STANDARD PLATE
Activity calls are given as the source filed them. The rule behind the calls is not given here.
readout label: mutagenic call

smiles text: C=C(C)C(=O)OCCCCCCOC(=O)C(=C)C
experimental target: CCRIS mutagenicity, Ames/micronucleus/aberration tests
mutagenic call: inactive; negative
//
smiles text: C=C(C)C(=O)OCCO
experimental target: CCRIS mutagenicity, Ames/micronucleus/aberration tests
mutagenic call: inactive; negative
//
smiles text: C=C(C)C(=O)OC(C)(C)C
experimental target: CCRIS mutagenicity, Ames/micronucleus/aberration tests
mutagenic call: inactive; negative
//
smiles text: C=CC(=O)OCC
experimental target: CCRIS mutagenicity, Ames/micronucleus/aberration tests
mutagenic call: inactive; negative

As a next step, examine the molecule that follows.
Query: Find the measured mutagenic call of C=CC(=O)OCCCCC and report it.
Response: inactive; negative

====

system: CCRIS mutagenicity, Ames/micronucleus/aberration tests; test: CCRIS mutagenicity studies; details: Test System: Ames Salmonella typhimurium; Strain/Indicator: TA100; Metabolic Activation: None; Method: Preincubation
The source made the active and inactive calls. No rule for the calls is given here.
readout label: mutagenic call

Below: 5 compounds and their reported mutagenic call.
compound: NC=O
test result: inactive; negative

compound: CNc1ccc2nc3ccc(=[N+](C)C)cc-3sc2c1
test result: active; positive

compound: CC(C)CO
test result: inactive; negative

compound: CC(=O)CC(=O)Nc1ccccc1C
test result: inactive; negative

compound: N#CCCC(Br)(C#N)CBr (stereo not drawn)
test result: inactive; negative

Query: Find the measured mutagenic call of O=C(O)CCCl and report it.
Response: active; positive

Query: Find the measured mutagenic call of C=CC1=C(C)/C(=C/c2[nH]c(Cc3[nH]c(/C=C4\NC(=O)C(C)=C4C=C)c(C)c3CCC(=O)O)c(CCC(=O)O)c2C)NC1=O and report it.
Response: inactive; negative

Query: Find the measured mutagenic call of CCN(CC[N+](C)(C)C)c1ccc(N=Nc2ccc([N+](=O)[O-])cc2Cl)cc1 and report it.
Response: inactive; negative

Query: Find the measured mutagenic call of CNc1ccc(O)c2c1C(=O)c1c(O)ccc(NC)c1C2=O and report it.
Response: active; positive

Query: Find the measured mutagenic call of O=C(O)C(Cl)Cl and report it.
Response: active; positive

Query: Find the measured mutagenic call of O=C1[C@H]2CC=CC[C@H]2C(=O)N1SC(Cl)(Cl)Cl and report it.
Response: active; positive

Query: Find the measured mutagenic call of C1N2CN3CN1CN(C2)C3 and report it.
Response: inactive; negative

====

system: CCRIS mutagenicity, Ames/micronucleus/aberration tests; assay: CCRIS mutagenicity studies; details: Test System: AMES SALMONELLA TYPHIMURIUM; Strain/Indicator: TA7004; Metabolic Activation: RAT LIVER S-9, AROCLOR 1254; Method: FLUCTUATION (MICROTITER)
Activity calls are given as the source filed them. No rule for the calls is given here.
Permitted responses: t (active), f (inactive)

Example results:
molecule: CCC1CO1 (centres undefined)
label class: f

molecule: CC(C)CON=O
label class: f

Query: # fetch the recorded call for CS(C)=O here
Response: f

Query: # fetch the recorded call for CC(C)(OO)c1ccccc1 here
Response: t

====

tested on: CCRIS mutagenicity, Ames/micronucleus/aberration tests; experiment: CCRIS mutagenicity studies; conditions: Test System: AMES SALMONELLA TYPHIMURIUM; Strain/Indicator: TA98; Metabolic Activation: NONE; Method: STANDARD PLATE
Active and inactive are the calls of the source. The rule behind the calls is not given here.
Permitted responses: active, inactive

Example results:
compound: C=C(C)C(=O)/C(=C\C(=O)O)OC
label class: inactive

compound: N=C(N)c1cc2ccc(Br)cc2[nH]1
label class: inactive

compound: CCOP(=S)(OCC)Oc1cnc2ccccc2n1
label class: inactive

compound: O=C(O)CNCP(=O)(O)O
label class: inactive

compound: N=C(N)c1ccc2c(N)c(C(=N)N)[nH]c2c1
label class: inactive

Query: # fetch the recorded call for CC(=O)N(O)c1ccc([N+](=O)[O-])cc1 here
Response: active

Query: # fetch the recorded call for CCNc1nc(Cl)nc(NCC)n1 here
Response: inactive

Query: # fetch the recorded call for CN1CCN=C(c2ccccc2)c2cc(Cl)ccc21 here
Response: inactive

Query: # fetch the recorded call for C=C(C)C(=O)OCCOCCOCCOC(=O)C(=C)C here
Response: inactive

Query: # fetch the recorded call for CC(C)c1ccc(/C=C/c2ccc([N+](=O)[O-])cc2)cc1 here
Response: inactive

====

system: CCRIS mutagenicity, Ames/micronucleus/aberration tests; assay: CCRIS mutagenicity studies; conditions: Test System: MOUSE LYMPHOMA; Strain/Indicator: L5178Y (TK+/TK-); Metabolic Activation: NONE; Method: SUSPENSION/PLATE
Active and inactive are the calls of the source. How the calls were made is not given here.
Permitted responses: true for active, false for inactive

Example results:
molecule: COc1cccc2c1C(=O)c1c(O)c3c(c(O)c1C2=O)C[C@@](O)(C(=O)CO)C[C@@H]3O[C@H]1C[C@H](N)[C@H](O)[C@H](C)O1
label class: true

molecule: FC(C(F)(F)F)C(F)(F)F
label class: false

molecule: Cc1cccc(O)c1N
label class: true

molecule: C/C=C(\C)C=O
label class: true

molecule: Cc1ccc(N)c(O)c1
label class: true

molecule: CC(CN1CC(=O)NC(=O)C1)N1CC(=O)NC(=O)C1 (stereo not drawn)
label class: true

molecule: Cc1ccccc1N
label class: false

molecule: CC(O)CN1CC(C)OC1=O (stereo not drawn)
label class: true

molecule: Nc1ccn([C@@H]2O[C@H](CO)[C@@H](O)C2O)c(=O)n1 (stereo partly drawn)
label class: true

molecule: CC(=O)CC(=O)CCC(=O)O
label class: false

Query: # fetch the recorded call for NC(=O)c1cc[n+](COC[n+]2ccccc2/C=N/O)cc1 here
Response: false

Query: # fetch the recorded call for O=C(/C=C/c1ccc(O)c(O)c1)O[C@@H]1C[C@](O)(C(=O)O)C[C@@H](O)[C@H]1O here
Response: false

Query: # fetch the recorded call for CCc1ccco1 here
Response: false

Query: # fetch the recorded call for COc1ccc2nc(N)sc2c1 here
Response: false

Query: # fetch the recorded call for O=C([O-])c1ccc2ccccc2c1.O=C([O-])c1ccc2ccccc2c1.[Pb+2] here
Response: true

Query: # fetch the recorded call for O.O.O.O=C([O-])[C@H]([O-])[C@@H]([O-])C(=O)[O-].O=C([O-])[C@H]([O-])[C@@H]([O-])C(=O)[O-].[K+].[K+].[Sb+3].[Sb+3] here
Response: true

Query: # fetch the recorded call for CC[C@H](C)[C@@H]([C@@H](CC(=O)N1CCC[C@H]1[C@H](OC)[C@@H](C)C(=O)N[C@@H](Cc1ccccc1)c1nccs1)OC)N(C)C(=O)[C@@H](NC(=O)[C@H](C(C)C)N(C)C)C(C)C here
Response: true

Query: # fetch the recorded call for Cc1ccc2c(c1N)C(=O)c1ccccc1C2=O here
Response: true

Query: # fetch the recorded call for c1ccc2cnncc2c1 here
Response: true

Query: # fetch the recorded call for C=C1N(C)c2ccccc2C1(C)C here
Response: false

Query: # fetch the recorded call for CC/C(C)=N\O here
Response: true
